- target: BRAF V600E (Homo sapiens, UniProt P15056, V600E)
- Sequence (P15056 whole entry V600E): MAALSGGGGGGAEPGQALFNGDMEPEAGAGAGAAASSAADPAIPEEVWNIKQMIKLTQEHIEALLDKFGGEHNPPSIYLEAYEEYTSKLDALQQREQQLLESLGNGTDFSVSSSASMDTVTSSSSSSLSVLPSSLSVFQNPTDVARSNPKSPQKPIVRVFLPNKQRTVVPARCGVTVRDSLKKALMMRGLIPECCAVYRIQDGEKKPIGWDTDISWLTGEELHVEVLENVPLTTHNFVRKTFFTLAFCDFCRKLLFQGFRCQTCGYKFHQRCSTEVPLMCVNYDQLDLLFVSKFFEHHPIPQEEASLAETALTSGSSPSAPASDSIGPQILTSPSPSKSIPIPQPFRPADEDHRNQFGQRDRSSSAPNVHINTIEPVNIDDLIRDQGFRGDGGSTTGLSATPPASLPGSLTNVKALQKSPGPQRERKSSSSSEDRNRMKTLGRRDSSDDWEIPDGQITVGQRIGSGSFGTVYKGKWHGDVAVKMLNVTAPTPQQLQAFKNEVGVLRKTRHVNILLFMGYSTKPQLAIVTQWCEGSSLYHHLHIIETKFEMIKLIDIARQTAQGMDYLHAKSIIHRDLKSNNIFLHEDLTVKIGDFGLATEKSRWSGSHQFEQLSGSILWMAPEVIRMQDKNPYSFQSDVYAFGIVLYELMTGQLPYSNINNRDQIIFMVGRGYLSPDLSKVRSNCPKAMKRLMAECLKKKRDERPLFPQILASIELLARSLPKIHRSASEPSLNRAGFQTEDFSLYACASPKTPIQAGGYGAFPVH
- test_protocol: HiBiT cellular BRAF^V600E degradation assay
- Type: cell-based
- stated_conditions: A375.10 cells, 24 h; concentration at which 50% of total cellular BRAF^V600E is degraded
measurement_type: DC50 (nM)

I = CCN(C)S(=O)(=O)Nc1ccc(F)c(Oc2ccc3ncn(C4COC5(CCN(C(=O)CN6CCC(c7ccc(NC8CCC(=O)NC8=O)cc7F)CC6)CC5)C4)c(=O)c3c2)c1C#N (stereo not shown)
II = CCN(C)S(=O)(=O)Nc1ccc(F)c(Oc2ccc3ncn(CC4CC5(CCN(C(=O)CN6CCC(c7ccc(NC8CCC(=O)NC8=O)cc7F)CC6)CC5)C4)c(=O)c3c2)c1C#N (stereo not shown)
III = N#Cc1c(NS(=O)(=O)N2CCCCC2)ccc(F)c1Oc1ccc2ncn(-c3cnc(N4CCN(C(=O)CN5CCC(c6ccc(N[C@H]7CCC(=O)NC7=O)cc6F)CC5)CC4)nc3)c(=O)c2c1
Order the entries above from lowest to highest DC50. Output spec: labels arranged per the requested ranking. I, III, II
(I: 19.5 nM, III: 29.7 nM, II: 46.9 nM)

A = CCN(C)S(=O)(=O)Nc1ccc(F)c(Oc2ccc3ncn(C4COC5(CCN(C(=O)CN6CCC(c7ccc(NC8CCC(=O)NC8=O)cc7F)CC6)CC5)C4)c(=O)c3c2N)c1C#N (stereo not shown)
B = N#Cc1c(NS(=O)(=O)N2CC[C@@H](F)C2)ccc(F)c1Oc1ccc2ncn(-c3cnc(N4CCN(C(=O)CN5CCC(c6ccc(N[C@@H]7CCC(=O)NC7=O)cc6F)CC5)CC4)nc3)c(=O)c2c1
C = CCN(C)S(=O)(=O)Nc1ccc(F)c(Oc2ccc3ncn(C4COC5(CCN(C(=O)CN6CCC(c7ccc(NC8CCC(=O)NC8=O)cc7F)CC6)CC5)C4)c(=O)c3c2C)c1C#N (stereo not shown)
Rank the items in ascending order with respect to DC50. Give the order by naming the labels one after another as requested. B, A, C
(B: 15.7 nM, A: 25.4 nM, C: 56 nM)

---

- target: BRAF V600E (Homo sapiens, UniProt P15056, V600E)
- test_protocol: HiBiT cellular BRAF^V600E degradation assay
- Format: cell-based
- stated_conditions: A375.10 cells, 24 h; concentration at which 50% of total cellular BRAF^V600E is degraded
measurement_type: DC50 (nM)

{"compound": "CCN(C)S(=O)(=O)Nc1ccc(F)c(Nc2ccc3ncn([C@H]4COC5(CCN(C(=O)CN6CCC(c7ccc(NC8CCC(=O)NC8=O)cc7F)CC6)CC5)C4)c(=O)c3c2)c1C#N (single isomer, unassigned)", "target": "BRAF V600E (Homo sapiens, UniProt P15056, V600E)", "value_unit": "nM", "quantitative_result": 20.7}

A = CCN(C)S(=O)(=O)Nc1ccc(F)c(Oc2ccc3ncn(C4COC5(CCN(C(=O)CC6(O)CCN(c7cc8c(cc7F)c(N7CCC(=O)NC7=O)nn8C)CC6)CC5)C4)c(=O)c3c2N(C)C)c1C#N (stereo not drawn)
B = CCN(C)S(=O)(=O)Nc1ccc(F)c(Oc2ccc3ncn(CCC4CCN(CC(=O)N5CCC(c6ccc(NC7CCC(=O)NC7=O)cc6)CC5)CC4)c(=O)c3c2)c1C#N (stereo not drawn)
Between A and B , which one has the lower reported DC50 value? // respond with label for picked entry A
(A: 27.8 nM, B: 165 nM)

---

- target: BRAF V600E (Homo sapiens, UniProt P15056, V600E)
- test_protocol: HiBiT cellular BRAF^V600E degradation assay
- Format: cell-based
- stated_conditions: A375.10 cells, 24 h; concentration at which 50% of total cellular BRAF^V600E is degraded
measurement_type: DC50 (nM)

Some molecules with known DC50 results, for comparison:
{"molecule": "CCN(C)S(=O)(=O)Nc1ccc(F)c(Oc2ccc3ncn([C@@H]4COC5(CCN(C(=O)CN6CCC(c7ccc(NC8CCC(=O)NC8=O)cc7F)CC6)CC5)C4)c(=O)c3c2Cl)c1C#N (single isomer, unassigned) [Example 78]", "DC50 [nM]": 49.7}
{"molecule": "COC1CN(S(=O)(=O)Nc2ccc(F)c(Oc3ccc4ncn(-c5cnc(N6CCN(C(=O)CN7CCC(c8ccc(N[C@H]9CCC(=O)NC9=O)cc8F)CC7)CC6)nc5)c(=O)c4c3)c2C#N)C1 [Example 117]", "DC50 [nM]": 38.3}
{"molecule": "CCN(C)S(=O)(=O)Nc1ccc(F)c(Oc2ccc3ncn(C4COC5(CCN(C(=O)CN6CCC(c7ccc(NC8CCC(=O)NC8=O)cc7F)CC6)CC5)C4)c(=O)c3c2F)c1C#N (stereo not drawn) [Example 51]", "DC50 [nM]": 29.6}
{"molecule": "CCN(C)S(=O)(=O)Nc1ccc(F)c(Oc2ccc3ncn(-c4cnn(C5CCN(C(=O)CN6CCC(c7c(F)cc(NC8CCC(=O)NC8=O)cc7F)CC6)CC5)c4)c(=O)c3c2)c1C#N (stereo not drawn) [Example 20]", "DC50 [nM]": 14.4}
{"molecule": "CCN(C)S(=O)(=O)Nc1ccc(F)c(Oc2ccc3ncn(C4CCC5(CC4)CCN(C(=O)CC4(O)CCN(c6cc7c(cc6F)c(N6CCC(=O)NC6=O)nn7C)CC4)CC5)c(=O)c3c2)c1C#N [Example 158]", "DC50 [nM]": 25}

1 = CCN(C)S(=O)(=O)Nc1ccc(F)c(Oc2ccc3ncn(CCCC4CCN(C(=O)CN5CCC(c6ccc7c(C8CCC(=O)NC8=O)nn(C)c7c6)CC5)CC4)c(=O)c3c2)c1C#N (stereo not drawn) [Example 145]
2 = CCN(C)S(=O)(=O)Nc1ccc(F)c(Oc2ccc3ncc([C@@H]4COC5(CCN(C(=O)CC6(O)CCN(c7cc8c(cc7F)c(N7CCC(=O)NC7=O)nn8C)CC6)CC5)C4)c(OC)c3c2)c1C#N (single isomer, unassigned) [Example 226]
3 = CCN(C)S(=O)(=O)Nc1ccc(F)c(Oc2ccc3ncn(C4CC5(CCN(C(=O)CC6(O)CCN(c7ccc(NC8CCC(=O)NC8=O)cc7F)CC6)CC5)C4)c(=O)c3c2)c1C#N (stereo not drawn) [Example 23]
Which order do these items take when sorted by rising DC50? List them. Note for the reader: the ranking is given by listing the labels in the order requested. 1, 3, 2

---

- target: BRAF V600E (Homo sapiens, UniProt P15056, V600E)
- test_protocol: HiBiT cellular BRAF^V600E degradation assay
- Format: cell-based
- stated_conditions: A375.10 cells, 24 h; residual protein remaining in the cell; read-out: HiBit 24 h Emax
measurement_type: Emax (%)

// known answers, use as guide
{"compound": "CCN(C)S(=O)(=O)Nc1ccc(F)c(Oc2ccc3ncn([C@@H]4CCC5(CCN(C(=O)CN6CCC(c7ccc(NC8CCC(=O)NC8=O)cc7F)CC6)CC5)C4)c(=O)c3c2)c1C#N (single isomer, unassigned) [Example 41]", "target": "BRAF V600E (Homo sapiens, UniProt P15056, V600E)", "value_unit": "%", "Emax": 9.27}
{"compound": "CCN(C)S(=O)(=O)Nc1ccc(F)c(Oc2ccc3ncn(-c4cnn(C5CCN(C(=O)CN6CCC(c7ccc(NC8CCC(=O)NC8=O)cc7F)CC6)CC5)c4)c(=O)c3c2)c1C#N (stereo not shown) [Example 16]", "target": "BRAF V600E (Homo sapiens, UniProt P15056, V600E)", "value_unit": "%", "Emax": 15.5}
{"compound": "CC(C)S(=O)(=O)Nc1ccc(F)c(Oc2ccc3ncn(-c4cnc(N5CCN(C(=O)CN6CCC(c7ccc(N[C@@H]8CCC(=O)NC8=O)cc7F)CC6)CC5)nc4)c(=O)c3c2)c1C#N [Example 118]", "target": "BRAF V600E (Homo sapiens, UniProt P15056, V600E)", "value_unit": "%", "Emax": 9.98}
{"compound": "CO[C@H]1CCN(S(=O)(=O)Nc2ccc(F)c(Oc3ccc4ncn(-c5cnc(N6CCN(C(=O)CN7CCC(c8ccc(N[C@@H]9CCC(=O)NC9=O)cc8F)CC7)CC6)nc5)c(=O)c4c3)c2C#N)C1 [Example 110]", "target": "BRAF V600E (Homo sapiens, UniProt P15056, V600E)", "value_unit": "%", "Emax": 8.22}
{"compound": "N#Cc1c(NS(=O)(=O)C2CC2)ccc(F)c1Oc1ccc2ncn(-c3cnc(N4CCN(C(=O)CN5CCC(c6ccc(N[C@H]7CCC(=O)NC7=O)cc6F)CC5)CC4)nc3)c(=O)c2c1 [Example 114]", "target": "BRAF V600E (Homo sapiens, UniProt P15056, V600E)", "value_unit": "%", "Emax": 9.6}

A = CCN(C)S(=O)(=O)Nc1ccc(F)c(Oc2ccc3ncn(-c4ccc(N5CCN(C(=O)CN6CCC(c7ccc(NC8CCC(=O)NC8=O)cc7F)CC6)CC5)nc4)c(=O)c3c2)c1C#N (stereo not shown) [Example 85]
B = Cn1nc(N2CCC(=O)NC2=O)c2cc(F)c(N3CCC(O)(CC(=O)N4CCC5(CC4)C[C@@H](n4cnc6ccc(Oc7c(F)ccc(NS(=O)(=O)N8CCCCC8)c7C#N)cc6c4=O)CO5)CC3)cc21 [Example 187]
C = CCN(C)S(=O)(=O)Nc1ccc(F)c(Oc2ccc3ncn(C4CCC5(CC4)CCN(C(=O)CN4CCN(c6cc7c(cc6F)c(N6CCC(=O)NC6=O)nn7C)CC4)CC5)c(=O)c3c2)c1C#N [Example 163]
D = CCN(C)S(=O)(=O)Nc1ccc(F)c(Oc2ccc3ncc([C@H]4COC5(CCN(C(=O)CC6(O)CCN(c7cc8c(cc7F)c(N7CCC(=O)NC7=O)nn8C)CC6)CC5)C4)c(OC)c3c2)c1C#N (single isomer, unassigned) [Example 225]
Your job: order these 4 records by Emax, ascending. # the answer lists labels in the order requested A, C, B, D

P = CCN(C)S(=O)(=O)Nc1ccc(F)c(Oc2ccc3ncn([C@H]4COC5(CCN(C(=O)CC6(O)CCN(c7cc8c(cc7F)c(N7CCC(=O)NC7=O)nn8C)CC6)CC5)C4)c(=O)c3c2OC)c1C#N (single isomer, unassigned) [Example 181]
Q = CCN(C)S(=O)(=O)Nc1ccc(F)c(Oc2ccc3ncn([C@@H]4COC5(CCN(C(=O)CN6CCC(c7ccc(NC8CCC(=O)NC8=O)cc7F)CC6)CC5)C4)c(=O)c3c2)c1C#N (single isomer, unassigned) [Example 33]
R = Cn1nc(N2CCC(=O)NC2=O)c2cc(F)c(N3CCC(O)(CC(=O)N4CCC5(CC4)C[C@@H](n4cnc6ccc(Oc7c(F)ccc(NS(=O)(=O)C8CC8)c7C#N)cc6c4=O)CO5)CC3)cc21 [Example 192]
Descending sort on Emax required. Record the ranking as a list of labels in the requested order. R, P, Q
(R: 32.2%, P: 19.1%, Q: 8.77%)

P = CCN(C)S(=O)(=O)Nc1ccc(F)c(Oc2ccc3ncn([C@H]4COC5(CCN(C(=O)CN6CCN(c7cc8c(cc7F)c(N7CCC(=O)NC7=O)nn8C)CC6)CC5)C4)c(=O)c3c2)c1C#N [Example 164]
Q = CN(CCF)S(=O)(=O)Nc1ccc(F)c(Oc2ccc3ncn(-c4cnc(N5CCN(C(=O)CN6CCC(c7ccc(N[C@H]8CCC(=O)NC8=O)cc7F)CC6)CC5)nc4)c(=O)c3c2)c1C#N [Example 121]
R = CCN(C)S(=O)(=O)Nc1ccc(F)c(Oc2ccc3ncn([C@H]4COC5(CCN(C(=O)CC6(O)CCN(c7cc8c(cc7F)c(N7CCC(=O)NC7=O)nn8C)CC6)CC5)C4)c(=O)c3c2O)c1C#N [Example 186]
List the 3 entries from lowest Emax to highest Emax value. # respond with the labels, arranged in the requested order Q, P, R
(Q: 7.8%, P: 15.6%, R: 25.1%)

P = CCN(C)S(=O)(=O)Nc1ccc(F)c(Oc2ccc3ncn([C@H]4CCC5(CCN(C(=O)CN6CCN(c7ccc(C8CCC(=O)NC8=O)cc7F)CC6)CC5)C4)c(=O)c3c2)c1C#N (stereo partly shown) [Example 55]
Q = CCN(C)S(=O)(=O)Nc1ccc(F)c(Oc2ccc3ncn(CCN4CCN(C(=O)CN5CCC(c6ccc(NC7CCC(=O)NC7=O)cc6)CC5)CC4)c(=O)c3c2)c1C#N (stereo not shown) [Example 9]
Field: lower Emax | Options: P / Q Returns: label corresponding to the selected item. Q

Data credit: patent US12486253B2
